- Experimental Details: LD50 in mice, method of Litchfield-Wilcoxon
- Format: in vivo
- Details: mouse, in vivo, po
Measured Metric: LD50 (mg/kg)
Answers are plain numbers, in mg/kg.

Enquiry: Provide measured LD50 value, entry: CN1CCN(CCCCOc2ccccc2C=Cc2ccccc2)CC1
Return: 1050

* * *

- Experimental Details: LD50 in rats, method of Litchfield-Wilcoxon
- Details: in vivo; rat, po
Measured Metric: LD50 (mg/kg)
Give bare numbers, in mg/kg.

Enquiry: Provide measured LD50 value, entry: CN(C)CCCCOc1ccccc1C=Cc1ccccc1.Cl
Return: 2000

* * *

- System: maximal electroshock seizure (MES)
- Experimental Details: Anti-MES action: protection against tonic extensor (TE) induced by electroshock via a pair of ear electrodes
- Format: in vivo, ddy strain male mice
- Details: Mus musculus; 50% effective dose, po, 8 mice per group
Assignment: determine reported ED50 for the given compounds.
Answers are plain numbers, in mg/kg.

Worked examples follow.
Compound	Tested System	Measured Metric	Quantity Unit	Value
C(=Cc1ccccc1OCCCCN1CCCCC1)c1ccccc1	maximal electroshock seizure (MES)	ED50	mg/kg	60
CN1C(=O)OC(C)(C)C1=O [Trimethadione, reference compound]	maximal electroshock seizure (MES)	ED50	mg/kg	1180
CN(C)CCCCOc1ccccc1C=Cc1ccccc1.Cl	maximal electroshock seizure (MES)	ED50	mg/kg	38
OCCN1CCN(CCCCOc2ccccc2C=Cc2ccccc2)CC1	maximal electroshock seizure (MES)	ED50	mg/kg	76.1
CNCCCCOc1ccccc1C=Cc1ccccc1	maximal electroshock seizure (MES)	ED50	mg/kg	60
CN1CCN(CCCCOc2ccccc2C=Cc2ccccc2)CC1	maximal electroshock seizure (MES)	ED50	mg/kg	35.5
C(=Cc1ccccc1OCCCCN1CCCC1)c1ccccc1	maximal electroshock seizure (MES)	ED50	mg/kg	65

# ---- query compound ----
Enquiry: Provide measured ED50 value, entry: OC1CCCN(CCCCOc2ccccc2C=Cc2ccccc2)C1 (centres unmarked)
Return: 20
